# maps each entry to its pKd
Molecular target: T1, Human PTH (1-34) (human, not fully specified)
T1 construct: Synthetic peptide bought from Bachem; also called hPTH (1-34); human 34mer
T1 peptide: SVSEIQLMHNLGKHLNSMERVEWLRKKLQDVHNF
Assay: BiaCore, 37° C., 34mer
# reply with the number alone; pKd is -log10 of concentration in mol/L

>  <binder>
anti-PTH mAb 214 (antibody, IgG2, V domains shown, also called AB-PTH-XG2-214; well 267D10) VH: EVQLVESGGGLVKPGGSLRLSCAASGSTFSNAWMSWVRQAPGKGLEWVGRIKSRTDGGTADYAAPVKGRFTISRDDLKKTLYLQMNSLKTEDTAVYYCTTYYFDSSGFPFDYWGQGTLVTVSS VL: DIVMTQSPLYLPVTPGEPASISCRSSQSLLHSNGYKYLEWYLQKPGQSPQLLVYLGSNRASGVPDRFSGSGSGTDFTLKISRVEAEDVGVYYCMQALQTPLTFGGGTKVEIK

>  <quantitative.result>
9.40

$$$$
>  <binder>
anti-PTH mAb 140 (antibody, IgG2, V domains shown, also called AB-PTH-XG2-140; well 132G12) VH: EVQLVESGGGLVKPGGSLTLSCAASGFTFSNAWLSWVRQAPGKGLEWVGRIKSKTDGGTTDYAAPVKGRFTVSRDDSKNTLFLQMNSLKTEDTAVYYCTTGATFDSWGQGTLVTVSS VL: DIVMTQSPLSLPVTPGEPASISCRSSQSLLHSNGYKFLDWFLQKPGQSPQLLIYLGSYRASGVPDRFSGSGSGTDFTLTISRVEAEDVGVYYCMQALQTPWTFGQGTKVEIK

>  <quantitative.result>
8.28

$$$$

Now, please, on to the next binder.
q: What pKd value was documented for this binder, anti-PTH mAb 026 (antibody, IgG2, V domains shown, also called AB-PTH-XG2-026; well 126B1) VH: QVQLVESGGGVVQPGRSLRLSCAASGFTFSSYGMHWVRQAPGKGLDWVAVISYDGSNKFYADSVKGRFTISRDNSKNTLYLQMNSLRAEDTAVYYCARDHWELLDYWGQGTLVTVSS VL: DIVMTQTPLSLSVTPGQPASISCKSSQSLLDSDGKTYLYWYLQRSGQPPQLLIHEVSNRFSGVPYRFIGSGSGTDFTLKISRVEAEDVGAYYCMQGKQFPFIFGPGTKVDIK ?
a: 8.02
